Target Or System: Potassium voltage-gated channel subfamily KQT member 1 (Homo sapiens) (UniProt P51787)
Sequence (P51787 whole entry, looked up): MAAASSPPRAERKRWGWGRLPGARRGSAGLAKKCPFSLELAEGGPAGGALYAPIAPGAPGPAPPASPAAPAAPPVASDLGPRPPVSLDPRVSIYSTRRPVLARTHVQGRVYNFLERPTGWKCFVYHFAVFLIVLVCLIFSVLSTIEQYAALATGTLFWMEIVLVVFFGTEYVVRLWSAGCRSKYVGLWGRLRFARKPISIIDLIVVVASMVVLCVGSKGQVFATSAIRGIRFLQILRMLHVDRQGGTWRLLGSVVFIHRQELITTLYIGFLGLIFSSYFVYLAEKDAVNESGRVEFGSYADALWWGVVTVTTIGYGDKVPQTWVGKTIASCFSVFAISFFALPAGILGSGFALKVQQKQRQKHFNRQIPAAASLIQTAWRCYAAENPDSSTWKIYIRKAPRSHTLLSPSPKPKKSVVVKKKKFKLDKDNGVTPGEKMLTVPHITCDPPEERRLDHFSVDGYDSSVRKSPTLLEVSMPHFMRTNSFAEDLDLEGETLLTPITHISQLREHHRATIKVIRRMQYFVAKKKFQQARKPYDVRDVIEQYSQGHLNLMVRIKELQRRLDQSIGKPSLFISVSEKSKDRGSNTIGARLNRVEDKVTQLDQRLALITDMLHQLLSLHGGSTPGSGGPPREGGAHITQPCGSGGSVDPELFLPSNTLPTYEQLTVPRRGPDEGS
Procedure Text: KCNQ1 potassium channel potentiators, confirmation, FluxOR thallium flux, CHO cells, duplicates (AID 493007);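 on Outcome: cells depolarized by a potassium plus thallium sulfate stimulus after compound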
Particulars: KCNQ1 cell line, FluxOR thallium flux fluorescence, at 10 µM, % of reference activator effect, buffer zero
Active and inactive are the calls of the source.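 How the source made its calls: active means potentiation averaged over duplicate wells exceeding buffer-only control mean by more than 3 SD; inactive means the rest.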
Outcome codes: active, inactive

| Molecule | Classification |
| --- | --- |
| O=C(NC(=S)N1CCCCCC1)c1ccc(Cl)cc1Cl | inactive |
| COc1ccc(NC(=S)NC(=O)c2ccccc2Cl)cc1 | inactive |
| O=C(CN1C2=NCCCN2c2ccccc21)c1ccc2c(c1)OCO2 | inactive |
| COc1ccc(NC(=O)CC2C(=O)NCCN2C(=O)Nc2ccc(C(F)(F)F)cc2)cc1 (stereo unspecified) | inactive |
| Cc1cccn2c(=O)nc(SCC(=O)N3N=C(c4cccs4)CC3c3ccc(F)cc3)nc12 (stereo unspecified) | inactive |
| Cc1ccccc1CC(=O)NC1CCN(Cc2ccccc2)CC1 | inactive |
| C/C(Cl)=C\Cn1c(O)c(N=NC(N)=S)c2cc(Br)ccc21 | active |
| COc1ccccc1C(=O)NNC(=S)NC(=O)c1sc2ccccc2c1Cl | active |
| O=C(NC1CC1)C1=NOC(CNc2ncc(C(F)(F)F)cc2Cl)C1 (stereo unspecified) | inactive |
| Oc1c(Cl)cc(Cl)c2cccnc12 | active |
| Cc1ccc(-c2ccc(=O)n(Cc3cccc(Br)c3)n2)cc1 | inactive |

---

Procedure Text: thallium flux activation in parental CHO cells, counter-screen for KCNQ1 potentiator project (AID 493006);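 on activation: fluorescence ratio of max minus min over baseline after K+ and Tl+ depolarization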
Particulars: parental CHO-K1 cells, FluxOR thallium flux, at 10 µM
Activity calls are given as the source filed them.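 Rule for the calls: active = duplicate-averaged activation above buffer control mean plus 5 SD of those controls; inactive = the rest.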
Classes used: active, inactive

| Smiles Entry | Classification |
| --- | --- |
| COc1ccc(C(=O)c2cc([N+](=O)[O-])ccc2N2CCOCC2)cc1 | inactive |
| S=c1nc[nH]c2c1sc1nc(-c3ccccc3)c3c(c12)CCCC3 | active |
| S=c1nc(C2CCCCC2)n(-c2ccccc2)[nH]1 | active |
| C/C(=N\NC(=S)Nc1cccc(C)c1)c1ccco1 | inactive |
| Cc1ccc2[nH]c(=O)c(CN(CCCN(C)C)C(=S)NCCc3ccccc3)cc2c1 | inactive |
| O=C(Nc1nnc(-c2ccc3c(c2)CCCC3)o1)c1ccc(Cl)cc1Cl | active |

---

System: Transient receptor potential cation channel subfamily C member 4 (mouse)
Procedure Text: TRPC4 modulation by TRPC6 hit compounds, confirmation, selectivity assay for TRPC6 modulator project, cell-based, HEK293 TRPC4/mu-opioid, membrane potential dye, mouse (AID 488927)
Particulars: membrane potential fluorescence, at 10 µM
Some of the results follow. Activity calls are given as the source filed them.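 Rule for the calls: active = membrane potential signal moved up or down beyond 5 SD of buffer control wells, in both duplicate plates, actives on both sides; inactive = the rest.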
Outcome codes: True = active, False = inactive

| Molecule | Target Or System | Classification |
| --- | --- | --- |
| COC(=O)c1ccc(NC(=O)CSc2nnc(-c3ccncc3)n2C)cc1 | Transient receptor potential cation channel subfamily C member 4 (mouse) | True |
| Cc1cccn2c(=O)c3cc(C#N)c(=O)n(CCCN4CCOCC4)c3nc12 | Transient receptor potential cation channel subfamily C member 4 (mouse) | True |
| COc1ccccc1C(CNC(=O)c1cccc(NS(=O)(=O)c2ccc(Br)cc2)c1)N(C)C (stereo not given) | Transient receptor potential cation channel subfamily C member 4 (mouse) | False |
| O=C(c1ccc(-n2cnnn2)cc1)N1CCN(C(c2ccccc2)c2ccccc2)CC1 | Transient receptor potential cation channel subfamily C member 4 (mouse) | True |
| CCOc1ccc(/C(O)=C2/C(=O)C(=O)N(Cc3cccnc3)C2c2ccc(N(C)C)cc2)c(C)c1 (stereo not given) | Transient receptor potential cation channel subfamily C member 4 (mouse) | False |
| CCOC(=O)c1sc2nc(CSCC(=O)OCc3ccc(C(=O)OC)o3)[nH]c(=O)c2c1C | Transient receptor potential cation channel subfamily C member 4 (mouse) | False |
| CC(NC(=S)Nc1ccc(OC(F)F)cc1)c1ccc(F)cc1 (stereo not given) | Transient receptor potential cation channel subfamily C member 4 (mouse) | True |
| CCc1ccc(OCC(=O)N(Cc2ccccc2)C2CCS(=O)(=O)C2)cc1 (stereo not given) | Transient receptor potential cation channel subfamily C member 4 (mouse) | True |
| O=[N+]([O-])c1ccccc1Nc1ccc(O)cc1 | Transient receptor potential cation channel subfamily C member 4 (mouse) | True |
| CCN(CC)CCNc1nc(-c2ccc(OC(F)F)cc2)c(C)s1 | Transient receptor potential cation channel subfamily C member 4 (mouse) | False |
